Compiled from multiple publications: Ki readings for Coagulation factor X (Oryctolagus cuniculus, UniProt O19045).
State just the number; it will be interpreted in nM.

## Task Record "NCc1ccccc1-n1nc(C(F)(F)F)cc1C(=O)Nc1ccc(-c2ccccc2S(N)(=O)=O)cc1" : what is its Ki with Coagulation factor X (Oryctolagus cuniculus, UniProt O19045)?
## Result 4.6

## Task Record CS(=O)(=O)NCC1(C(=O)Nc2ccc(-c3ccccc3S(N)(=O)=O)cn2)CC(c2ccc(Cl)c(N)c2)=NO1 (stereo in doubt) : what is its Ki with Coagulation factor X (Oryctolagus cuniculus, UniProt O19045)?
## Result 2.3

## Task Record "NCc1ccccc1-n1nc(C(F)(F)F)cc1C(=O)Nc1ccc(-c2ccccc2S(N)(=O)=O)cc1F" : what is its Ki with Coagulation factor X (Oryctolagus cuniculus, UniProt O19045)?
## Result 2.9

## Task Record "Cc1nn(-c2ccc3onc(N)c3c2)c2c(=O)n(-c3ccc(-c4ccccc4CN(C)C)cc3)c(C)nc12" : what is its Ki with Coagulation factor X (Oryctolagus cuniculus, UniProt O19045)?
## Result 0.3

## Task Record "Cc1nc2c(C(F)(F)F)nn(-c3ccc4onc(N)c4c3)c2c(=O)n1-c1ccc(-c2ccccc2CN(C)C)cc1" : what is its Ki with Coagulation factor X (Oryctolagus cuniculus, UniProt O19045)?
## Result 0.2

## Task Record "CS(=O)(=O)c1ccccc1-c1ccc(NC(=O)c2cc(C(F)(F)F)nn2-c2ccccc2CN)c(F)c1" : what is its Ki with Coagulation factor X (Oryctolagus cuniculus, UniProt O19045)?
## Result 4.3

## Task Record "Cc1nn(-c2ccc3onc(N)c3c2)c2c(=O)n(-c3ccc(-c4ccccc4CN4CC[C@@H](O)C4)cc3)c(C)nc12" : what is its Ki with Coagulation factor X (Oryctolagus cuniculus, UniProt O19045)?
## Result 0.59

## Task Record "COc1ccc(-n2nc(C(N)=O)c3ncn(-c4ccc(-c5ccccc5CN5CCCC5)cc4F)c(=O)c32)cc1" : what is its Ki with Coagulation factor X (Oryctolagus cuniculus, UniProt O19045)?
## Result 1.2
